Provide the recorded Observed Efficacy, W (%) for the entries that follow.
tested on: Trichoplusia ni (cabbage looper) larvae; experiment: In-planta insecticidal efficacy (sprayed green cabbage plants, larval survival, Abbott and Colby formulas) against Trichoplusia ni; type: in vivo; conditions: Abbott formula vs 10% isopropanol control; Exirel at […] ([…] cyantraniliprole), aliphatic acids at 750 ppm
Numbers only, in %.

Field: example entries. Status: answers known.
CCC/C=C/C(=O)[O-].[K+] [trans-2-Hexenoic acid, potassium salt] : 11.3
CC/C=C/CC(=O)[O-].[K+] [trans-3-Hexenoic acid, potassium salt] : 7.1

Parameters: items (list). Returns: Observed Efficacy, W (%) for each item.
1. CCCCCCCCCC(=O)[O-].[K+] [Potassium Caprate]
2. C=CCCCCCCCC(=O)O

Result string:
5.5
−0.4
